Reference for the values: patent US20160326240A1

Attribute: kon
Target: T1, Rat RGMa-His (rat) (UniProt D4A188)
T1 sequence: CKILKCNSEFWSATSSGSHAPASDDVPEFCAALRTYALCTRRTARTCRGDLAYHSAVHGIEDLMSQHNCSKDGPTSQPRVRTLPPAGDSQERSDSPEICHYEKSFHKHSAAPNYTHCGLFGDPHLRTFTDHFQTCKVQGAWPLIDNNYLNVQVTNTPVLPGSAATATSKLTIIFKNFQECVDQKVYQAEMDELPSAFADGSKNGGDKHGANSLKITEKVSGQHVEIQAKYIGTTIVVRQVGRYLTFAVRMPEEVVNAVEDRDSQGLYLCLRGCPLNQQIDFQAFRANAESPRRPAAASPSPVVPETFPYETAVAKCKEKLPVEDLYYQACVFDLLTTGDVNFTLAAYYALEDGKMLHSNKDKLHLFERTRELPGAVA
Assay: BIAcore
Numeric only. Scale: M⁻¹ s⁻¹

- binder: "AE12-1-F (antibody, V domains shown) VH: EVQLVQSGAEVKKPGASVKVSCKASGYTFTSHGISWVRQAPGQGLDWMGWISPYSGNTNYAQKLQGRVTMTTDTSTSTAYMELSSLRSEDTAVYYCARVGSGPYYYMDVWGQGTLVTVSS VL: QSALTQPRSVSGSPGQSVTISCTGTSSSVGDSIYVSWYQQHPGKAPKLMLYDVTKRPSGVPDRFSGSKSGNTASLTISGLQAEDEADYYCFSYAGTDTLFGGGTKVTVL"
  readout.unit: "M⁻¹ s⁻¹"
  numeric.value: 26000

With those in mind, consider the next binder.
Query: Which kon reading was recorded for the binder AE12-1 (antibody, V domains shown) VH: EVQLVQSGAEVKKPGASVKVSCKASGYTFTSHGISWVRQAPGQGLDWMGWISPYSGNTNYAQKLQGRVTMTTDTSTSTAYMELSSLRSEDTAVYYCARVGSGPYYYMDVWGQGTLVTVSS VL: QSALTQPRSVSGSPGQSVTISCTGTSSSVGDSIYVSWYQQHPGKAPKLMLYDVTKRPSGVPDRFSGSKSGNTASLTISGLQAEDEADYYCCSYAGTDTLFGGGTKVTVL ?
Response: 26000
